# System: RPMI-7951 (Melanoma);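 further: after 72 h of two-drug dosing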
# TEST_PROTOCOL: Bliss excess, mean over the matrix (fraction); higher = more synergy
# key: entry, value: Bliss excess
API doc: respond with a numeric literal and nothing else, no unit.

Check out these entries, answers already filled in.
Task: Please indicate Bliss excess recorded for CN(CCO)CC[C@H](CSc1ccccc1)Nc1ccc(S(=O)(=O)NC(=O)c2ccc(N3CCC([C@@H](O)c4ccccc4-c4ccc(Cl)cc4)CC3)cc2)cc1S(=O)(=O)C(F)(F)F [AZD4320] + C[C@@H](Nc1cc(F)cc(F)c1)c1cc(C(=O)N(C)C)cc2c(=O)cc(N3CCOCC3)oc12 [AZD8186] (first compound max 1 µM, 7x7, partner max 3 µM)
Output: 0.0019

Task: Retrieve Bliss excess measured for COc1cccc(OCCCN)c1-c1cc(Nc2cnc(C#N)cn2)n[nH]1 [Prexasertib] + CN(C)CCCOc1ccc(-c2ccc3ncc4c(c3c2)n(C2CCOCC2)c(=O)n4C)cn1 [AZD0156] (first compound max 1 µM, 7x7, partner max 1 µM) and print it.
Output: -0.0165

Continue with the next compound.
Task: Tell me Bliss excess reported for CC1(C)CCC(CN2CCN(c3ccc(C(=O)NS(=O)(=O)c4ccc(NCC5CCOCC5)c([N+](=O)[O-])c4)c(Oc4cnc5[nH]ccc5c4)c3)CC2)=C(c2ccc(Cl)cc2)C1 [Venetoclax] + COc1cc(Nc2ncc3c(n2)-c2ccc(Cl)cc2C(c2c(F)cccc2OC)=NC3)ccc1C(=O)O [Alisertib] (first compound max 1 µM, 7x7, partner max 10 µM)
Output: 0.0107
